Ref: BigSolDB 2.1

Experimental setup: in n-hexanol, 318.15 K
Readout: solubility (mole fraction)

> print(dat)
   compound.structure                     readout  result.number
1     O=C(O)c1ccccc1O  solubility (mole fraction)          0.209

* * *

Experimental setup: in ethanol, 308.15 K
Readout: solubility (mole fraction)

> print(dat)
   compound.structure  result.number
1     O=C(O)c1ccccc1O           0.17

* * *

Experimental setup: in n-pentanol, 313.15 K
Readout: solubility (mole fraction)

> print(dat)
   compound.structure                     readout  result.number
1     O=C(O)c1ccccc1O  solubility (mole fraction)          0.192

* * *

Experimental setup: in ethanol, 303.15 K
Readout: solubility (mole fraction)

> print(dat)
   compound.structure                     readout  result.number
1     O=C(O)c1ccccc1O  solubility (mole fraction)          0.157

* * *

Experimental setup: in n-heptanol, 308.15 K
Readout: solubility (mole fraction)

> print(dat)
   compound.structure  result.number
1     O=C(O)c1ccccc1O          0.185

* * *

Experimental setup: in n-propanol, 278.15 K
Readout: solubility (mole fraction)

> print(dat)
   compound.structure  result.number
1     O=C(O)c1ccccc1O          0.102

* * *

Experimental setup: in n-butanol, 283.15 K
Readout: solubility (mole fraction)

> print(dat)
   compound.structure                     readout  result.number
1     O=C(O)c1ccccc1O  solubility (mole fraction)          0.116

* * *

Experimental setup: in n-pentanol, 308.15 K
Readout: solubility (mole fraction)

> print(dat)
   compound.structure                     readout  result.number
1     O=C(O)c1ccccc1O  solubility (mole fraction)           0.18

* * *

Experimental setup: in n-hexanol, 288.15 K
Readout: solubility (mole fraction)

> print(dat)
   compound.structure  result.number
1     O=C(O)c1ccccc1O          0.137

* * *

Experimental setup: in n-heptanol, 283.15 K
Readout: solubility (mole fraction)

> print(dat)
   compound.structure  result.number
1     O=C(O)c1ccccc1O          0.128

* * *

Experimental setup: in n-pentanol, 303.15 K
Readout: solubility (mole fraction)

> print(dat)
   compound.structure                     readout  result.number
1     O=C(O)c1ccccc1O  solubility (mole fraction)          0.166

* * *

Experimental setup: in n-butanol, 313.15 K
Readout: solubility (mole fraction)

> print(dat)
   compound.structure  result
1     O=C(O)c1ccccc1O   0.186

* * *

Experimental setup: in n-heptanol, 278.15 K
Readout: solubility (mole fraction)

> print(dat)
   compound.structure  result.number
1     O=C(O)c1ccccc1O          0.117

* * *

Experimental setup: in ethanol, 283.15 K
Readout: solubility (mole fraction)

> print(dat)
   compound.structure                     readout  result.number
1     O=C(O)c1ccccc1O  solubility (mole fraction)          0.117

* * *

Experimental setup: in n-propanol, 298.15 K
Readout: solubility (mole fraction)

> print(dat)
   compound.structure  result.number
1     O=C(O)c1ccccc1O          0.143

* * *

Experimental setup: in ethanol, 298.15 K
Readout: solubility (mole fraction)

> print(dat)
   compound.structure  result.number
1     O=C(O)c1ccccc1O          0.145
